- Test system: HCT-116
- assay: Growth inhibition of human HCT116 cells after 72 hrs by CellTiter-Glo luminescence assay
- Type: functional
- experimentalSetup: HCT-116, 72 h
reportedProperty: GI50 (µM)

Sample records with GI50:
chemicalString	readoutUnit	GI50
N#CC1(c2ccccc2)CCN(c2ccc(-c3nc(CO)no3)nn2)CC1	µM	0.53
COC1(c2ccccc2)CCN(c2ccc(-c3nc(CO)no3)nn2)CC1	µM	0.41
OCc1noc(-c2ccc(N3CCC(c4ccccc4)(C(F)(F)F)CC3)nn2)n1	µM	0.039

1 = N#CC1(c2ccc(Cl)cc2)CCN(c2ccc(-c3nc(CO)no3)nn2)CC1
2 = OCc1nnc(-c2ccc(N3CCC(c4ccc(C(F)(F)F)cc4)(C(F)(F)F)CC3)nn2)s1
**Q:** Could you point out whether the larger GI50 belongs to 1 or to 2 ? Write down the label of the entry you select.
**A:** 1
